Hello, the source for this data is ChEMBL document CHEMBL1201862, in case you need it.

Provide the reported GI50 of each item.
System: SK-MEL-2
Experiment: NCI tumour cell line growth inhibition, 48 h
Activity calls are given as the source filed them. Rule as the data show it: active = GI50 up to about 1.1 µM and inactive = higher.

# per-item lookup of GI50; items listed below
1. CCCCCC[C@@H]1CCC2C(CO)[C@@H](O)CC[C@@H]2C1 (stereo not given in full)
2. COc1cccc(CC(C)NCC(O)c2ccc(O)c(O)c2)c1 (stereo not given)
3. NC(CCCCNCc1ccccc1O)C(=O)O (stereo not given)
4. O=C(Cc1ccccc1)N/N=C(/c1nc2ccc([N+](=O)[O-])cc2nc1O)C(O)c1ccc(C(O)/C(=N/NC(=O)Cc2ccccc2)c2nc3ccc([N+](=O)[O-])cc3nc2O)cc1 (stereo not given)
5. CC(=O)C(CN1CCCCC1)C(c1ccccc1)c1c(O)c2ccccc2oc1=O (stereo not given)
6. COc1cc(C(=O)NO)ccc1O

## Output
["26.7 µM (inactive)", "> 100 µM (inactive)", "> 100 µM (inactive)", "40 µM (inactive)", "> 100 µM (inactive)", "> 100 µM (inactive)"]

# per-item lookup of GI50; items listed below
1. N#CC(c1ccccc1)N1CCCN(C(C#N)c2ccccc2)C1c1ccccc1O (stereo not given)
2. CN(C(=O)Cc1cccc(N=C=S)c1)[C@H]1CCCC[C@@H]1N1CCCC1
3. c1ccc2c[n+](Cc3ccnc4ccccc34)ccc2c1

## Output
1: > 100 µM (inactive); 2: 18.7 µM (inactive); 3: > 100 µM (inactive)

## Input Any idea what its GI50 is? The molecule is Cn1c(=O)oc2cc(C3CCC(=O)N3Cc3csc(-c4ccccc4)n3)ccc21 (stereo not given)
## Output > 100 µM (inactive)

---

Tested on: NCI-H460
Assay: NCI tumour cell line growth inhibition, 48 h
Calls of active or inactive are those of the source. Cut-off read from the data, not from the text of the source: active = GI50 up to about 1.1 µM and inactive = higher.
measurement.kind: GI50

Some solved cases for reference:
compound	value
Clc1ccccc1-c1nn2c(CCCCCCCCc3nnc4sc(-c5ccccc5Cl)nn34)nnc2s1	> 100 µM (inactive)
CCOC(=O)c1c(/C=N\Nc2ccccc2)nc2ccccc2c1-c1ccccc1	37.8 µM (inactive)
Cc1ccc(S(=O)(=O)NC(CCC(=O)NNc2ccccc2)C(=O)NNc2ccccc2)cc1 (stereo not drawn)	16.8 µM (inactive)
CC(C)CC(CNC(Cc1ccc(Cl)cc1)C(N)=O)NC(=O)C(Cc1c[nH]cn1)NC(=O)CNC(=O)C(NC(=O)C(C)NC(=O)C(Cc1c[nH]c2ccccc12)NC(=O)C(CCC(=O)O)NC(=O)C(N)Cc1ccccc1)C(C)C (stereo not drawn)	> 133 µM (inactive)

# per-item lookup of GI50; items listed below
1. COC(=O)Cc1c(/C=C/C(C)(C)n2cnc(CCN3C(=O)CCC3=O)c2)[nH]c2ccccc12
2. c1ccc2c(c1)Cc1c(Cc3csc4ccccc34)ccc3cccc-2c13
3. N=C(N)NS(=O)(=O)c1ccc(NC(=O)c2c3ccccc3nc3ccccc23)cc1
4. Cc1nc2ccc(NC3OC(CO)C(O)C(O)C3O)cc2c(=O)n1-c1ccccc1 (stereo not drawn)

## Output
1: > 100 µM (inactive); 2: > 100 µM (inactive); 3: > 100 µM (inactive); 4: > 100 µM (inactive)

---

Test system: SW-620
Test: NCI tumour cell line growth inhibition, 48 h
Active and inactive are the calls of the source. Rule as the data show it: active = GI50 up to about 1.1 µM and inactive = higher.
Provide the reported GI50 of each item.

# per-item lookup of GI50; items listed below
1. COc1cc(C)c(S(=O)(=O)N(CCCN)OCCCN)c(C)c1C
2. Cc1c(-c2ccccc2)c(=O)oc2ccc(Cl)cc12
3. Cc1ccc([N+](=O)[O-])cc1NC(=O)/C(CC(=O)c1sc(C(N)=S)nc1C)=N\N
4. CC(=O)Oc1ccc(/C=C/C(=O)NCC(NC(=O)/C=C/c2ccc(OC(C)=O)c(OC(C)=O)c2)C(=O)O)cc1OC(C)=O (stereo unspecified)
5. COc1cc(/C=C2/SC(c3ccccc3)N(c3ccccc3Cl)C2=O)cc(OC)c1OC (stereo unspecified)
6. CCOC(=O)C(C(=O)Cc1ccccc1)c1ccccc1 (stereo unspecified)

## Output
1: 46.1 µM (inactive); 2: > 100 µM (inactive); 3: > 100 µM (inactive); 4: > 100 µM (inactive); 5: 37.8 µM (inactive); 6: > 100 µM (inactive)

# per-item lookup of GI50; items listed below
1. c1ccc2c(c1)CCc1c-2n(CCN2CCOCC2)c2ccccc12
2. CC1CC[C@@]2(OC1)OC1C[C@H]3[C@@H]4CC[C@H]5CC(OC6OC(CO)C(O)C(OC7OC(CO)C(OC8OC(CO)C(O)C(OC9OC(CO)C(O)C(O)C9O)C8OC8OC(CO)C(O)C(O)C8O)C(O)C7O)C6O)[C@H](O)CC5(C)[C@H]4CCC3(C)C1[C@@H]2C (stereo partly specified)

## Output
1. > 100 µM (inactive)
2. 2.22 µM (inactive)

# per-item lookup of GI50; items listed below
1. C/C(=N\NC(=S)NCCNC(=S)N/N=C(\C)c1ccccn1)c1ccccn1
2. Brc1ccccc1/C=N\C12CC3CC(CC(C3)C1)C2
3. O=C1/C(=C/c2cccc(Br)c2)CSC/C1=C\c1cccc(Br)c1
4. COc1ccc(C(c2ccccc2C(=O)O)c2ccc(OC)c3ccccc23)c2ccccc12
5. CN(C)C1C(CO)OC(n2cnc3c(N)ncnc32)C1O (stereo unspecified)
6. O=[N+]([O-])C(=C1c2ccccc2-c2ccccc21)[N+](=O)[O-]
7. C(=N\Nc1ccc(-c2nc3ccccc3[nH]2)cc1)/c1c(-c2ccc(Cc3ccccc3)cc2)[nH]c2ccccc12
8. OCc1cccc(Nc2nc(O)c3[nH]cnc3n2)c1

## Output
["5.04 µM (inactive)", "3.9 µM (inactive)", "2.73 µM (inactive)", "14.8 µM (inactive)", "> 100 µM (inactive)", "64.7 µM (inactive)", "9.98 µM (inactive)", "> 100 µM (inactive)"]

# per-item lookup of GI50; items listed below
1. COCCCNC(=O)CC(=O)NCCCOC
2. CC1(C)N=c2c(ncn2CCCO)=C(C(N)=O)N1
3. COC(=O)C1=Nc2c(C)nn(-c3ccccc3)c2N=C(c2ccccc2)C1

## Output
1: > 100 µM (inactive); 2: > 100 µM (inactive); 3: > 10 µM (inactive)

# per-item lookup of GI50; items listed below
1. CCOC(=O)c1c(/C=N\Nc2ccccc2)nc2ccccc2c1-c1ccccc1
2. Cc1nnc(N/N=C2/C(=O)Nc3ccccc32)nc1O

## Output
["38.1 µM (inactive)", "> 100 µM (inactive)"]

---

Test system: MDA-N
Test: NCI tumour cell line growth inhibition, 48 h
Active and inactive are the calls of the source. Rule as the data show it: active = GI50 up to about 1.1 µM and inactive = higher.
measurement.kind: GI50

Some solved cases for reference:
compound	system.name	value
CCOc1c(OC)cc(-c2nc3n(n2)C(=O)C(CC)S3)cc1OC (stereo unspecified)	MDA-N	> 10 µM (inactive)
Cc1ccc(S(=O)(=O)NNC(=S)Nc2cccc3ccccc23)cc1	MDA-N	55.3 µM (inactive)
S=C1NCCN1C(=S)NC1CCCCC1	MDA-N	36.9 µM (inactive)

# per-item lookup of GI50; items listed below
1. CN(C)CCCc1cccc2[nH]c3c(c12)CN(C)CC3
2. COc1cc(C(c2c(O)c3ccccc3oc2=O)c2c(O)c3ccccc3oc2=O)cc(Br)c1O
3. COc1ccc(NC(C)=O)cc1N1C(=O)/C(=C\c2ccccc2)SC1c1cc(OC)c(OC)c(OC)c1 (stereo unspecified)
4. CCSC1=CC2(O)N(CCc3ccc(OC)c(OC)c3)C(=O)CC2(C(=O)OC)CC1=O (stereo unspecified)
5. CCOP(=O)(OCC)/C(C#N)=C/c1[nH]cnc1C
6. O=c1[nH]nc(-c2ccccc2)n1/N=C/c1ccccc1O

## Output
1: > 100 µM (inactive); 2: 18.4 µM (inactive); 3: 25.8 µM (inactive); 4: 31.3 µM (inactive); 5: > 100 µM (inactive); 6: > 100 µM (inactive)

# per-item lookup of GI50; items listed below
1. CSC(=O)/C=C1\SS/C(=C\C(=O)SC)S1
2. O=[N+]([O-])c1ccc2oc(=N/c3ccccc3)/c(=N\c3ccccc3)[nH]c2c1

## Output
1: 2.51 µM (inactive); 2: 54.5 µM (inactive)

---

Tested on: CAKI-1
Experiment: NCI tumour cell line growth inhibition, 48 h
Activity calls are given as the source filed them. No stated cut-off is given here; in the data, active = GI50 up to about 1.1 µM and inactive = higher.
Provide the reported GI50 of each item.

compound	system.name	GI50
CCOC(=O)C(NC(=O)CC)(N1CCN(c2cc3c(cc2F)c(=O)c(C(=O)O)cn3C2CC2)CC1)C(F)(F)F (stereo not drawn)	CAKI-1	> 100 µM (inactive)

# per-item lookup of GI50; items listed below
1. CC1CN(c2cc3c(cc2F)c(=O)c(C(=O)O)cn3-c2ccc(N3CCN(C)CC3)cn2)CC(C)N1 (stereo not drawn)
2. CN1CCN(CC(=O)N2CCCn3c2nc2ccccc2c3=O)CC1
3. COc1ccc2[nH]c3c(c2c1)CCc1ccccc1-3
4. O=C1C=C(Nc2cccnc2)c2ccccc2C1=O
5. COc1cc2c(cc1O)N=C[C@@H]1CC[C@@H](O)N1C2=O.COc1cc2c(cc1O)N=C[C@@H]1CC[C@H](O)N1C2=O
6. CC(=O)O[C@H]1C(=O)[C@@]2(C)[C@H]([C@H](OC(=O)c3ccccc3)[C@@]3(O)C[C@H](O)C(C)=C1C3(C)C)[C@]1(OC(C)=O)CO[C@@H]1C[C@@H]2O
7. COc1ccc(NC(C)=O)cc1N1C(=O)/C(=C\c2ccccc2)SC1c1cc(OC)c(OC)c(OC)c1 (stereo not drawn)

## Output
["> 100 µM (inactive)", "> 100 µM (inactive)", "> 100 µM (inactive)", "4.58 µM (inactive)", "0.607 µM (active)", "> 100 µM (inactive)", "34.7 µM (inactive)"]
